Structures can show the parent of a compound that is named as a salt.
MEASURED ATTRIBUTE: melting point

COMPOUND	TEST RESULT
Clc1ccc(-n2ccc(OCCCCN3CCSCC3)n2)cc1Cl.O=C(O)C(=O)O	175 to 177 °C
CCN(CC)CCOc1nn(-c2ccc(Cl)c(Cl)c2)c(C)c1C.Cl	134 to 136 °C
Clc1ccc(-n2ccc(OCCN3CCCCC3)n2)cc1Cl (as salt: hydrochloride)	172 to 177 °C
Cl.Clc1ccc(-n2nc(OCCn3ccnc3)cc2-c2ccccc2)cc1Cl	147 to 155 °C

Let us examine a further case.
Looking up Cl.Clc1ccc(-n2ccc(OCCCCN3CCCCC3)n2)cc1Cl , I see its melting point listed as 156 to 161 °C
